Record form. Attribute: Population Membrane Permeable-Phenotype (%). Fill in for each entry.
Test system: U2OS
Procedure Summary: Multiplex assay against U2OS
Type: toxicity, cell-based
Measurement Setup: human, 24 h, 10 µM, compound concentration 10 uM, replicate 1
Return type: number; implicit unit %.

Report Population Membrane Permeable-Phenotype (%) for "COc1ccccc1N1CCN(C[C@@H](C(=O)NC(C)(C)C)c2ccccc2)CC1.Cl.Cl" please.
20

Can you look up the measured Population Membrane Permeable-Phenotype (%) of "COc1cccc2c1c(NS(=O)(=O)c1ccc(Cl)s1)nn2Cc1cccc(CNC(=O)C(C)(C)O)c1" for me?
5

Look up Population Membrane Permeable-Phenotype (%): CC[C@@H](C)Nc1nc(C)nc2c(-c3ccc(OC)nc3C)c(C)nn12 [PEXACERFONT]
5

What does the data say about its Population Membrane Permeable-Phenotype (%)? Entry: Br.CS(=O)(=O)Nc1c(O)ccc2c1CCCC2C1=NCCN1 (centres undefined)
5
